src = ChEMBL document CHEMBL1136438

# SYSTEM UNDER TEST: Hepatitis C virus serine protease, NS3/NS4A (Hepatitis C virus, UniProt D2K2A8+A3EZI9)
# Sequence (D2K2A8 whole entry): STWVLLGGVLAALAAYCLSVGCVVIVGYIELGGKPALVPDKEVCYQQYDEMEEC
# Sequence (A3EZI9 whole entry): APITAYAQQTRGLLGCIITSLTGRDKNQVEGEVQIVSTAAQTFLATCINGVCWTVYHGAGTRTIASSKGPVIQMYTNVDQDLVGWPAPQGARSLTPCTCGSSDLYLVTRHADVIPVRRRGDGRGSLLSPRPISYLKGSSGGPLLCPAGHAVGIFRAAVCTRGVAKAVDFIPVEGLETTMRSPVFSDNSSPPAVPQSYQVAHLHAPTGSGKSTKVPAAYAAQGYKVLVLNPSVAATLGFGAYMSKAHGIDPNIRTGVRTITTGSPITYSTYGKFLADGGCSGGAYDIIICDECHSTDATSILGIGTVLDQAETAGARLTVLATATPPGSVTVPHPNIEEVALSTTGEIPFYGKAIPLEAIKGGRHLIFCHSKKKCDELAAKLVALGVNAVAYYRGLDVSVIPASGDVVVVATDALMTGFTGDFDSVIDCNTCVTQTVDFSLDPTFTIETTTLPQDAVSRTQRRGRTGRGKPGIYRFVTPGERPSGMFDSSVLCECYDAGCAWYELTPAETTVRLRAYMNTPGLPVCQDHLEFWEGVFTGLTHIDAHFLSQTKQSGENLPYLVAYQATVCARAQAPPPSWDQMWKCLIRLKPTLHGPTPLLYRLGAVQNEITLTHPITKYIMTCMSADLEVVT
# PROTOCOL: Inhibition of HCV (Hepatitis C Virus) NS3-4A protease.
*1 amine or outer side, *2 acyl side, *3 side chain or, on linkers, in order; H or OH if unused. Where a SMILES comes first, the peptide text is derived from it. Side-chain parts run from the residue outwards. [ ]: non-standard residue; d: D form. The star is where a group is joined. NH(1-naphthyl) = c1ccc2c(N*)cccc2c1; 2Naphthoyl = O=C(c1ccc2ccccc2c1)*; Pyrazinecarbonyl = O=C(c1cnccn1)*; Hyp = O=C(O)[C@@H]1C[C@@H](O)CN1; Abu = CC[C@H](N)C(=O)O; CO = O=C([*:1])[*:2]; NHPh = c1ccc(N*)cc1
READOUT: Ki (µM)
Kindly answer with a numeric value in µM, unit omitted.

Here's what some known entries look like.
CC[C@@H](C=O)NC(=O)[C@@H]1C[C@@H](OC(=O)Nc2cccc3ccccc23)CN1C(=O)[C@@H](NC(=O)[C@@H](NC(=O)c1cnccn1)C(C)C)C(C)C (Pyrazinecarbonyl-VV[Hyp]([CO-NH(1-naphthyl)])[Abu]-aldehyde) | 12.5
CC[C@@H](C=O)NC(=O)[C@@H]1C[C@@H](OC(=O)Nc2ccccc2)CN1C(=O)[C@@H](NC(=O)[C@@H](NC(=O)c1cnccn1)C(C)C)C(C)C (Pyrazinecarbonyl-VV[Hyp]([CO-NHPh])[Abu]-aldehyde) | 22.3

API: the following record is the query input.
(Q) Param readout= Ki; system= Hepatitis C virus serine protease, NS3/NS4A (Hepatitis C virus, UniProt D2K2A8+A3EZI9); entry= CC[C@@H](C=O)NC(=O)[C@@H]1C[C@@H](OC(=O)c2ccc3ccccc3c2)CN1C(=O)[C@@H](NC(=O)[C@@H](NC(=O)c1cnccn1)C(C)C)C(C)C (Pyrazinecarbonyl-VV[Hyp](2Naphthoyl)[Abu]-aldehyde) ; returns value.
(A) 0.4
